Target: H1047R PIK3CA enzyme (Homo sapiens, UniProt P42336, H1047R)
Sequence (P42336 whole entry H1047R): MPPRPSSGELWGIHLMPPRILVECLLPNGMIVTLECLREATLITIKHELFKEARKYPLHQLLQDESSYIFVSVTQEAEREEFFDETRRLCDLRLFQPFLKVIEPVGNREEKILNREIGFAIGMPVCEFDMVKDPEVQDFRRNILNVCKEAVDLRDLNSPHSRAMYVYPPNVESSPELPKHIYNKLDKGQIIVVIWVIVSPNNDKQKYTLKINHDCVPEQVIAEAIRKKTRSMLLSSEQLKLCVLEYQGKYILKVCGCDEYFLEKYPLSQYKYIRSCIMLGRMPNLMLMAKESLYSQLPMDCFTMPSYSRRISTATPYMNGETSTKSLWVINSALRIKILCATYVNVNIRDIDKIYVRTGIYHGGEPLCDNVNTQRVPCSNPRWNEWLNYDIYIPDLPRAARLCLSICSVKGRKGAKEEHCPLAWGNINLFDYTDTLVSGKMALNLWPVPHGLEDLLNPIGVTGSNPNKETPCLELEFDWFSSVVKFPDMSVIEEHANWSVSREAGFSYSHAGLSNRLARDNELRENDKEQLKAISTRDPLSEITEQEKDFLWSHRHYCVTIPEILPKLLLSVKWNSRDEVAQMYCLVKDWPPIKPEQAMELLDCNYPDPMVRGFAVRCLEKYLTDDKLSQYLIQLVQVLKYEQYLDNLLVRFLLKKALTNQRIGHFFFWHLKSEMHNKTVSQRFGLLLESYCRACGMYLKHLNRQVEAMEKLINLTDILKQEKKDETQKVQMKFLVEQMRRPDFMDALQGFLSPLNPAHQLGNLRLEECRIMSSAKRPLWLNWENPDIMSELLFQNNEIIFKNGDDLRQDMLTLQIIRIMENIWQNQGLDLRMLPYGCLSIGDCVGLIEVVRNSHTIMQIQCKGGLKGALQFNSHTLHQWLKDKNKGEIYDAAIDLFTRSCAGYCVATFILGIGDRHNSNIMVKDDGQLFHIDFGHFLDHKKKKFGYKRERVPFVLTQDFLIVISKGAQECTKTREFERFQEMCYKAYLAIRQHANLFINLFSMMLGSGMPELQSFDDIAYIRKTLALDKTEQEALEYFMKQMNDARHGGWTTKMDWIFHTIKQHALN
Sequence (P27986 whole entry partner): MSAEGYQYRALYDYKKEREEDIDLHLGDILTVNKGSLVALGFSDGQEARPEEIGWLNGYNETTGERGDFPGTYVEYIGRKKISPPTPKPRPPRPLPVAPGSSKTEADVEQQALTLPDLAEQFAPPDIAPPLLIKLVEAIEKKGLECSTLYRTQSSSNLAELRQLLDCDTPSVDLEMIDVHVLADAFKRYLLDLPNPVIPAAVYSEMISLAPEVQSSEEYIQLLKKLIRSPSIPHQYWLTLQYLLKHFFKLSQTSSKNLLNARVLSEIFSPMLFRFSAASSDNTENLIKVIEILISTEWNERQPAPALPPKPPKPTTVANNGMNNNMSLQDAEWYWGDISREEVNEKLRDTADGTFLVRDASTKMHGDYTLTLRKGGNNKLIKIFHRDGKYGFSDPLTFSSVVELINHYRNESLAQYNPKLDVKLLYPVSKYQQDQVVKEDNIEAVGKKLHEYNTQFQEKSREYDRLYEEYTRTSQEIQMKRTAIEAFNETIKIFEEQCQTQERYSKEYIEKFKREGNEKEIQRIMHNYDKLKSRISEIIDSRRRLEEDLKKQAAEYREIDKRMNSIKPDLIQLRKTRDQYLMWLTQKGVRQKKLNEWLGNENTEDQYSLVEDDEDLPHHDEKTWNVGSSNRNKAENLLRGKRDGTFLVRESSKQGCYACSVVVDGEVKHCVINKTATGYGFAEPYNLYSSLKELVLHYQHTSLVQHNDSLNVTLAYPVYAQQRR
Test: ADP-Glo Biochemical PIK3CA Kinase Assay
pIC50: −log10 of the molar value.
assay endpoint: pIC50

Guide cases for pIC50, answers given:
1) Cc1ccccc1C1NC(=O)c2c(C(O)CO)ccc(NC(=O)c3csc4ccccc34)c21 (stereo not shown) [Compound I-120]; 6.30 to 7.00
2) O=C(Nc1cc(-c2cncc3ccccc23)cc2c1C(c1cc(F)ccc1Cl)NC2=O)c1cc(F)cc(C(F)(F)F)c1 (stereo not shown) [Compound I-852]; ≥ 7.00
3) O=C(Nc1cc(-c2cn3ncnc3cn2)cc2c1C(c1cc(F)ccc1C(F)F)NC2=O)c1cc(F)cc(Cl)c1 (stereo not shown) [Compound I-2201]; ≥ 7.00
4) [2H][C@@]1(c2cc(F)ccc2Cl)NC(=O)c2cccc(NC(=O)N3C[C@](O)(C(F)(F)F)c4cc(F)ccc43)c21 (single isomer, unassigned) [Compound I-2681]; 5.00 to 6.00
5) CC(O)c1cc(-c2ccc3ncnn3c2)cc2c1C(c1cc(F)ccc1Cl)NC2=O (stereo not shown) [Compound I-1907]; 4.00 to 5.00
6) O=C(Nc1cc(-c2ccn3ncnc3c2)cc2c1C(c1cc(F)ccc1Cl)NC2=O)c1cc(F)cc(C(F)(F)F)c1 (stereo not shown) [Compound I-1371]; ≥ 7.00

Let us examine a further case.
Give the measured pIC50 of O=C(Nc1cc(CNCc2ccccc2)nc2c1C(c1cc(F)ccc1Cl)NC2=O)c1cc(F)cc(C(F)(F)F)c1 (stereo not shown) [Compound I-444] .
6.30 to 7.00
